B1: FOXJ1 (parent)
chain: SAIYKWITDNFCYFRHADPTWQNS

Variants of: B1
test.protocol: protein stability index of a GFP-peptide fusion (GPS, HEK-293T) (PSI 1-6); higher = more stable;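 note: lentivirally expressed fusions sorted by FACS into six bins by GFP to DsRed ratio, PSI derived from sequencing read proportions per bin multiplied by bin number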
details: c terminus: a fixed tail appended
Label rule, in plain words: protein stability index of 2 and up is 1, under 2 is 0.

SARYKWITDNFCYFRHADPTWQNS
0
SAIYKWPTDNFCYFRHADPTWQNS
1
SAIWKWITDNFCYFRHADPTWQNS
1
SAIYKWITDNFCYFRHADPTCQNS
1
SAIYKMITDNFCYFRHADPTWQNS
1

Enquiry: Test whether the variant SAIYKWITDNFCYARHADPTWQNS records protein stability index of 2 or higher.
Return: 1

Enquiry: Test whether the variant SAIYKWITDNFCYFGHADPTWQNS records protein stability index of 2 or higher.
Return: 1

Enquiry: Test whether the variant SAIYKWITDNFCYFRHADPTWQAS records protein stability index of 2 or higher.
Return: 1

Enquiry: Test whether the variant SAIYKWITDNFCYFRHCDPTWQNS records protein stability index of 2 or higher.
Return: 1

Attribution: the supplement of paper PMC10567573
